Property: efficacy; scope: individual compounds
# Tested on: Phaedon cochleariae
# Test description: Phaedon cochleariae - spray test
# Assay type: in vivo
# Recorded conditions: 500 g/ha, after 7 days, larvae on Chinese cabbage leaf discs
Number only, in %; omit the unit.

Solved entries:
Compound	efficacy (%)
CCS(=O)(=O)c1c(-c2nc3cc(C(F)(F)F)ncc3n2C)nc2ccc(C(F)(F)F)cn12	100
CCS(=O)(=O)c1c(-c2nc3cc(C(F)(F)F)ncc3n2C)nc2c(Cl)cccn12	100
CCS(=O)(=O)c1c(-c2nc3cc(C(F)(F)F)ncc3n2C)nc2ccccn12	83

# efficacy lookup, item CCSc1c(-c2nc3cc(C(F)(F)F)ccc3n2C)nc2cc(C(F)(F)F)ccn12
83

Item under review: CCS(=O)(=O)c1c(-c2nc3cc(C(F)(F)F)ccc3n2C)nc2ccccn12 . Reported efficacy?
100

I'd like to know its efficacy. The compound in question is CCS(=O)(=O)c1c(-c2nc3cc(C(F)(F)F)ncc3n2C)nc2cc(Cl)ccn12
100

###

# Test description: log P by HPLC on a reversed-phase column (C 18), EEC Directive 79/831 Annex V.A8
# Assay type: physicochemical
# Recorded conditions: reversed-phase HPLC column (C 18); neutral range, pH 7.8; value in preparation example text; read-out: log P (neutral)
Endpoint label: chromatographic logP
// no unit string in output, number only

Below: 5 compounds and their reported chromatographic logP.
CCS(=O)(=O)c1c(-c2nc3cc(C(F)(F)F)cnc3o2)nc2ccccn12 2.52
CCOC(=O)c1nc2ccccn2c1S(=O)(=O)CC 1.52
CCSc1c(-c2nc3cc(C(F)(F)F)cnc3o2)nc2ccccn12 3.15
CCSc1c(C(=O)Nc2cc(C(F)(F)F)cnc2Cl)nc2ccccn12 4.39
Cn1c(-c2nc3ccccn3c2Cl)nc2cc(C(F)(F)F)ncc21 2.38

Continue with the compound presented below.
Item CCOC(=O)c1nc2ccccn2c1SCC has what recorded chromatographic logP?
2.05

###

# Test description: log P by HPLC on a reversed-phase column (C 18), EEC Directive 79/831 Annex V.A8
# Type: physicochemical
# Recorded conditions: reversed-phase HPLC column (C 18); neutral range, pH 7.8; value in preparation example text; read-out: log P (neutral)
# Protocol: The log P values are measured according to EEC Directive 79/831 Annex V.A8 by HPLC (high-performance liquid chromatography) on a reversed-phase column (C 18). Temperature: 55° C. […] Calibration is carried out using unbranched alkan-2-ones (having 3 to 16 carbon atoms) with known log P values (log P values determined on the basis of the retention times by linear interpolation between two successive alkanones).
# chromatographic logP values compiled below
Lab note: jot the number down without any unit.

// known answers, use as guide
CCS(=O)(=O)c1c(-c2nc3cc(C(F)(F)F)ncc3n2C)nc2ccccn12 2.07
CCSc1c(-c2nc3cc(C(F)(F)F)ncc3n2C)nc2ccccn12 2.75
CCS(=O)(=O)c1c(-c2nc3cc4c(cc3[nH]2)OC(F)(F)O4)nc2ccccn12 2.59

Now consider the entry below.
Give its chromatographic logP value. Item: CCS(=O)(=O)c1c(-c2nc3cc4c(cc3n2C)OC(F)(F)O4)nc2ccccn12
2.62

###

molecules and their reported efficacy
# System: Phaedon cochleariae
# Test description: Phaedon cochleariae - spray test
# Format: in vivo
# Recorded conditions: 500 g/ha, after 7 days, larvae on Chinese cabbage leaf discs
Report as a plain number; the unit % is understood.

Worked set:
Molecule	Measurement units	efficacy
CC[S+]([O-])c1c(-c2nc3cc(C(F)(F)F)ncc3n2C)nc2cccc(C(F)(F)F)n12 (centres unmarked)	%	100
CCS(=O)(=O)c1c(-c2nc3cc(C(F)(F)F)ccc3o2)nc2ccccn12	%	83
CCS(=O)(=O)c1c(-c2nc3cc(C(F)(F)F)cnc3o2)nc2ccccn12	%	100
CCS(=O)(=O)c1c(-c2nc3cc(C(F)(F)F)ncc3n2C)nc2cccc(C(F)(F)F)n12	%	100
CCSc1c(-c2nc3cc(C(F)(F)F)ccc3n2C)nc2cccc(C)n12	%	83
CCS(=O)(=O)c1c(-c2nc3cc4c(cc3[nH]2)OC(F)(F)O4)nc2ccccn12	%	100

What does the record list as efficacy for CCS(=O)(=O)c1cccn2c(S(=O)(=O)CC)c(-c3nc4cc(C(F)(F)F)ncc4n3C)nc12 ?
100
